MEASURED_TARGET: T1, integrin αVβ3 (UniProt P06756 31-992; P05106 27-718)
T1 construct: Coated on the ELISA plate
T1 sequence (P06756 31-992, chain 1 of 2): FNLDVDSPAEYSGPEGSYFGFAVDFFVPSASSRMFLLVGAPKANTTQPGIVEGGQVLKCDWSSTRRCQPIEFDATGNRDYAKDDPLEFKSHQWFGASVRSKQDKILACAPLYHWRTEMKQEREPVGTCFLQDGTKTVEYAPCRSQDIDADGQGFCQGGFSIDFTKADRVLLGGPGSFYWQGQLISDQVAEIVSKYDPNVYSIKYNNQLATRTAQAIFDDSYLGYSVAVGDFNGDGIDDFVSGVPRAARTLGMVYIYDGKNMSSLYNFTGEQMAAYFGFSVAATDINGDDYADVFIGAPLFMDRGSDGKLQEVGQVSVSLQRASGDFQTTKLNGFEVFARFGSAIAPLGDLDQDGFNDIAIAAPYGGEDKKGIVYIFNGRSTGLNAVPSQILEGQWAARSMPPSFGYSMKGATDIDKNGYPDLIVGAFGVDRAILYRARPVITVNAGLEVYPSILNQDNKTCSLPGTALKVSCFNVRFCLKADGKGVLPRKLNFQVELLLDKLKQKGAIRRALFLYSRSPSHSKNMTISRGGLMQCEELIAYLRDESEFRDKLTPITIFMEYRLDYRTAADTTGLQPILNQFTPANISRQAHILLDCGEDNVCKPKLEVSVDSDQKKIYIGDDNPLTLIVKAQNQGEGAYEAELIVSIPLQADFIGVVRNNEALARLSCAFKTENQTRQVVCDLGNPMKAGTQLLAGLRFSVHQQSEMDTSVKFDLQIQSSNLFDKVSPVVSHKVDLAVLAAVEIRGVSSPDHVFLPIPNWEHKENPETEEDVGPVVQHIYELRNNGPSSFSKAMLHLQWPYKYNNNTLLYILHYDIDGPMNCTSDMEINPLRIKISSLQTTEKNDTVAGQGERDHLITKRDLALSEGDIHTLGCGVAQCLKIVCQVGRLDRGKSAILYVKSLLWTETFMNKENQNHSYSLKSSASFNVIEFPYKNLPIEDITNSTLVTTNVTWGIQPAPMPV
T1 sequence (P05106 27-718, chain 2 of 2): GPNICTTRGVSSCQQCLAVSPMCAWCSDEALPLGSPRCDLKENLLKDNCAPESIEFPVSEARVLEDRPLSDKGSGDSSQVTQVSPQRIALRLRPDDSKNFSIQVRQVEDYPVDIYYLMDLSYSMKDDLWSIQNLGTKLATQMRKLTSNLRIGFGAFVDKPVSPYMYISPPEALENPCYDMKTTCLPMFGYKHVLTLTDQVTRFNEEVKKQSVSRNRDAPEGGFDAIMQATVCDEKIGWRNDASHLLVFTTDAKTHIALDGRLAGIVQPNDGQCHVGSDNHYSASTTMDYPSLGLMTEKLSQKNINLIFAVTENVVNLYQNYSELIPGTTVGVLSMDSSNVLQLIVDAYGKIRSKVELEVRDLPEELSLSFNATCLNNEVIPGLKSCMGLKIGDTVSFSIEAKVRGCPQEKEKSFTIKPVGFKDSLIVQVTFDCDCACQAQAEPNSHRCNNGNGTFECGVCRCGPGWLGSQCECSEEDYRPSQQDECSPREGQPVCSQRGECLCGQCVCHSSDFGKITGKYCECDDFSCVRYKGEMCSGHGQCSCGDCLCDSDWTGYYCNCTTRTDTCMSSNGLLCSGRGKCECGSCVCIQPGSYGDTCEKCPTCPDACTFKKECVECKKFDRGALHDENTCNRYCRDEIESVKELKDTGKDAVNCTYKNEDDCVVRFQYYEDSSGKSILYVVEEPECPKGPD
ASSAY: phage ELISA, coated integrin, anti-M13-HRP
For each record, write down the corresponding αvβ3 signal.
Just the number please, in OD, no unit attached.

stdin: Specify αvβ3 signal for M13 phage pKK96 displaying MICA α3 domain with loop 1 insert 5.1 (designed binder, also called 1-5.1; not shown: C-terminal portion of M13 gene III protein, fused at codon position 198) TVPPMVNVTVTRGDTFTQSVTCRASGFYPWNITLSWRQDGVSLSHDTQQWGDVLPDGNGTYQTWVATRICQGEEQRFTCYMEHSGNHSTHPVPSGK and stop.
stdout: 1.64

stdin: Specify αvβ3 signal for M13 phage pKK106 displaying wild type MICA α3 domain fused to pIII (other, also called WT; not shown: C-terminal portion of M13 gene III protein, fused at codon position 198) TVPPMVNVTRSEASEGNITVTCRASGFYPWNITLSWRQDGVSLSHDTQQWGDVLPDGNGTYQTWVATRICQGEEQRFTCYMEHSGNHSTHPVPSGK and stop.
stdout: 0

stdin: Specify αvβ3 signal for M13 phage pKK104 displaying MICA α3 domain with loop 3 insert 3.2sp (designed binder, also called 3-3.2sp; not shown: C-terminal portion of M13 gene III protein, fused at codon position 198) TVPPMVNVTRSEASEGNITVTCRASGFYPWNITLSWRQDGVSLSHDTQQWGDVLPDGNGTYQTWVATRISGGSGGGSTSRGDHPRTQSGGSGGGCYMEHSGNHSTHPVPSGK and stop.
stdout: 0.791

stdin: Specify αvβ3 signal for M13 phage pKK92 displaying MICA α3 domain with loop 1 insert 3.1 (designed binder, also called 1-3.1; not shown: C-terminal portion of M13 gene III protein, fused at codon position 198) TVPPMVNVTSRGDHPRTQVTCRASGFYPWNITLSWRQDGVSLSHDTQQWGDVLPDGNGTYQTWVATRICQGEEQRFTCYMEHSGNHSTHPVPSGK and stop.
stdout: 0.858

stdin: Specify αvβ3 signal for M13 phage pKK93 displaying MICA α3 domain with loop 1 insert 3.2 (designed binder, also called 1-3.2; not shown: C-terminal portion of M13 gene III protein, fused at codon position 198) TVPPMVNVTRTSRGDHPRTQVTCRASGFYPWNITLSWRQDGVSLSHDTQQWGDVLPDGNGTYQTWVATRICQGEEQRFTCYMEHSGNHSTHPVPSGK and stop.
stdout: 0.284

stdin: Specify αvβ3 signal for M13 phage pKK107 displaying MICA α3 domain with tight loop 1 insert T-3.1 (designed binder, also called 1-T-3.1; not shown: C-terminal portion of M13 gene III protein, fused at codon position 198) TVPPMVNTSRGDHPRTQCRASGFYPWNITLSWRQDGVSLSHDTQQWGDVLPDGNGTYQTWVATRICQGEEQRFTCYMEHSGNHSTHPVPSGK and stop.
stdout: 0.999

stdin: Specify αvβ3 signal for M13 phage pKK102 displaying MICA α3 domain with loop 1 insert 5.1sp (designed binder, also called 1-5.1sp; not shown: C-terminal portion of M13 gene III protein, fused at codon position 198) TVPPMVNVTSGGSGGGSVTRGDTFTQSSGGSGGGVTCRASGFYPWNITLSWRQDGVSLSHDTQQWGDVLPDGNGTYQTWVATRICQGEEQRFTCYMEHSGNHSTHPVPSGK and stop.
stdout: 1.02

stdin: Specify αvβ3 signal for M13 phage pKK98 displaying MICA α3 domain with loop 1 insert 5.3 (designed binder, also called 1-5.3; not shown: C-terminal portion of M13 gene III protein, fused at codon position 198) TVPPMVNVTHLARGDDLTYVTCRASGFYPWNITLSWRQDGVSLSHDTQQWGDVLPDGNGTYQTWVATRICQGEEQRFTCYMEHSGNHSTHPVPSGK and stop.
stdout: 1.22

stdin: Specify αvβ3 signal for M13 phage pKK97 displaying MICA α3 domain with loop 1 insert 5.2 (designed binder, also called 1-5.2; not shown: C-terminal portion of M13 gene III protein, fused at codon position 198) TVPPMVNVTRGDTFTQSVTCRASGFYPWNITLSWRQDGVSLSHDTQQWGDVLPDGNGTYQTWVATRICQGEEQRFTCYMEHSGNHSTHPVPSGK and stop.
stdout: 1.55

stdin: Specify αvβ3 signal for M13 phage pKK111 displaying MICA α3 domain with tight loop 1 insert T-5.3 (designed binder, also called 1-T-5.3; not shown: C-terminal portion of M13 gene III protein, fused at codon position 198) TVPPMVNHLARGDDLTYCRASGFYPWNITLSWRQDGVSLSHDTQQWGDVLPDGNGTYQTWVATRICQGEEQRFTCYMEHSGNHSTHPVPSGK and stop.
stdout: 0.707

stdin: Specify αvβ3 signal for M13 phage pKK108 displaying MICA α3 domain with tight loop 1 insert T-3.5 (designed binder, also called 1-T-3.5; not shown: C-terminal portion of M13 gene III protein, fused at codon position 198) TVPPMVNGSRGDSLIMHCRASGFYPWNITLSWRQDGVSLSHDTQQWGDVLPDGNGTYQTWVATRICQGEEQRFTCYMEHSGNHSTHPVPSGK and stop.
stdout: -0.09

stdin: Specify αvβ3 signal for M13 phage pKK103 displaying MICA α3 domain with loop 1 insert 5.3sp (designed binder, also called 1-5.3sp; not shown: C-terminal portion of M13 gene III protein, fused at codon position 198) TVPPMVNVTSGGSGGGSHLARGDDLTYSGGSGGGVTCRASGFYPWNITLSWRQDGVSLSHDTQQWGDVLPDGNGTYQTWVATRICQGEEQRFTCYMEHSGNHSTHPVPSGK and stop.
stdout: 0.688

stdin: Specify αvβ3 signal for M13 phage pKK105 displaying MICA α3 domain with loop 3 insert 3.3sp (designed binder, also called 3-3.3sp; not shown: C-terminal portion of M13 gene III protein, fused at codon position 198) TVPPMVNVTRSEASEGNITVTCRASGFYPWNITLSWRQDGVSLSHDTQQWGDVLPDGNGTYQTWVATRISGGSGGGSRVPRGDSDLTSGGSGGGCYMEHSGNHSTHPVPSGK and stop.
stdout: 1.33

stdin: Specify αvβ3 signal for M13 phage pKK101 displaying MICA α3 domain with loop 1 insert 3.3sp (designed binder, also called 1-3.3sp; not shown: C-terminal portion of M13 gene III protein, fused at codon position 198) TVPPMVNVTSGGSGGGSRVPRGDSDLTSGGSGGGVTCRASGFYPWNITLSWRQDGVSLSHDTQQWGDVLPDGNGTYQTWVATRICQGEEQRFTCYMEHSGNHSTHPVPSGK and stop.
stdout: 1.49

stdin: Specify αvβ3 signal for M13 phage pKK94 displaying MICA α3 domain with loop 1 insert 3.3 (designed binder, also called 1-3.3; not shown: C-terminal portion of M13 gene III protein, fused at codon position 198) TVPPMVNVTRVPRGDSDLTVTCRASGFYPWNITLSWRQDGVSLSHDTQQWGDVLPDGNGTYQTWVATRICQGEEQRFTCYMEHSGNHSTHPVPSGK and stop.
stdout: 1.07

stdin: Specify αvβ3 signal for M13 phage pKK110 displaying MICA α3 domain with tight loop 1 insert T-5.1 (designed binder, also called 1-T-5.1; not shown: C-terminal portion of M13 gene III protein, fused at codon position 198) TVPPMVNVTRGDTFTQSCRASGFYPWNITLSWRQDGVSLSHDTQQWGDVLPDGNGTYQTWVATRICQGEEQRFTCYMEHSGNHSTHPVPSGK and stop.
stdout: 1.49
